Tested on: CMK
protocol-text: CellTox Green cytotoxicity fluorescence relative to DMSO vehicle (fold of vehicle RFU); higher = more cell death (loss of membrane integrity), active = 2 or more
details: 0.1 µM; 48 h
property: CellTox Green cytotoxicity fluorescence
Provide a numeric answer; units are not to be included.

Lab note: molecule CCCCC(C=O)NC(=O)C(CC(C)C)NC(=O)C(CC(C)C)NC(C)=O (stereo not given) tested on CMK; recorded CellTox Green cytotoxicity fluorescence was 0.984

CMK CellTox Green cytotoxicity fluorescence of N#CC(=Cc1ccc(-c2cc(Cl)ccc2Cl)o1)C(=O)Nc1cccc2ncccc12 is 0.99

Tested system CMK; CellTox Green cytotoxicity fluorescence recorded for CCCC[C@@H](C=O)NC(=O)[C@H](CC(C)C)NC(=O)OCc1ccccc1 was 1

The value of CellTox Green cytotoxicity fluorescence recorded for Cn1cc(-c2ccc3c(c2)CCN3C(=O)Cc2cccc(C(F)(F)F)c2)c2c(N)ncnc21 when tested on CMK reads 0.987

Observed CellTox Green cytotoxicity fluorescence on CMK, entry CCN(CC)CCNC(=O)c1c(C)[nH]c(/C=C2\C(=O)Nc3ccc(F)cc32)c1C , equals 0.997

---

Tested on: Kasumi-1
protocol-text: CellTox Green cytotoxicity fluorescence relative to DMSO vehicle (fold of vehicle RFU); higher = more cell death (loss of membrane integrity), active = 2 or more
details: 0.1 µM; 24 h
For each entry below, report its CellTox Green cytotoxicity fluorescence value.
Write the value as a bare number.

Reported CellTox Green cytotoxicity fluorescence for Cc1nc(Nc2ncc(C(=O)Nc3c(C)cccc3Cl)s2)cc(N2CCN(CCO)CC2)n1 [Dasatinib Monohydrate] was 1.02

Record COc1cccc(-n2c(=O)[nH]c3cc(Cl)n(-c4ccc(-c5cccc(OC)c5O)cc4)c3c2=O)c1 . Reported CellTox Green cytotoxicity fluorescence: 0.99

Summary for this molecule, CC(C)[C@H](CO)Nc1nc(Nc2cccc(Cl)c2)c2ncn(C(C)C)c2n1 [Purvalanol A] : CellTox Green cytotoxicity fluorescence is 0.983

CellTox Green cytotoxicity fluorescence reading for COc1nc(-c2ccc3c(c2)OCO3)n(-c2ccc(NC(=O)CSc3ccccc3)cc2)n1 [SecinH3] : 1.02

The molecule COc1cc(C(=O)N2CCC(N3CCN(C)CC3)CC2)ccc1Nc1ncc2c(n1)N(C)c1ccccc1C(=O)N2C showed CellTox Green cytotoxicity fluorescence equal to 0.99
